# Test system: Escherichia coli
# conditionLabel: Concentration 32 ug.mL-1;; ASSAY_TEST Inhibition of Bacterial Growth; detection method Absorption (OD600); MEDIA CAMHB; plate type 384well; NBS; CORNING #3640; time 18 hr
# Description: Antibacterial activity against Escherichia coli ATCC 25922 (CO-ADD:GN_001); MIC in CAMBH media using NBS plates, by OD(600)
Potency and affinity values are given separately.
measuredAttribute: Inhibition (%)
# number only, unit % dropped from output

# input compound: `Cc1ccc(C)c(NC(=O)Cn2nc3c(Sc4ccccc4)nccn3c2=O)c1` ; wanted: its Inhibition
-5.56

# input compound: `Cc1cc(C)cc(Oc2nc3ccccc3n3c(=O)n(CC(=O)Nc4ccc5c(c4)OCO5)nc23)c1` ; wanted: its Inhibition
-5.83

# input compound: `Cc1ccc(-c2cc3c4nn(CC(=O)Nc5ccc6c(c5)OCO6)c(=O)n4ccn3n2)cc1C` ; wanted: its Inhibition
-12.23

# input compound: `Cc1nnc2c(SCC(=O)N3CCN(c4ccccc4F)CC3)nc3ccccc3n12` ; wanted: its Inhibition
5.15

# input compound: `O=C(CSc1nnc2c3cc(-c4ccccc4)nn3ccn12)Nc1cccc(Br)c1` ; wanted: its Inhibition
2.01

* * *

Assign Inhibition to each entry below.
# System: Staphylococcus aureus
# conditionLabel: Concentration 32 ug.mL-1;; ASSAY_TEST Inhibition of Bacterial Growth; detection method Absorption (OD600); MEDIA CAMHB; plate type 384well; NBS; CORNING #3640; time 18 hr
# Description: Antibacterial activity against Staphylococcus aureus MRSA ATCC 43300 (CO-ADD:GP_020); MIC in CAMBH media, using NBS plates, by OD(600)
Entries with a potency or affinity are not part of this list.
# number only, unit % dropped from output

# input compound: `CCCCN(C)c1ccc2nnc(CCc3nc(-c4cc(OC)cc(OC)c4)no3)n2n1` ; wanted: its Inhibition
-6.16

# input compound: `O=C(Cn1nc2ccc(Sc3cccc(F)c3)nn2c1=O)Nc1ccc2c(c1)OCCO2` ; wanted: its Inhibition
11.29

# input compound: `COC(=O)c1ccc(NC(=O)Cn2nc3c(Oc4ccccc4)nccn3c2=O)cc1` ; wanted: its Inhibition
1.06

# input compound: `Cc1ccc(-c2cc3c4nnc(SCC(=O)Nc5cccc(Br)c5)n4ccn3n2)cc1` ; wanted: its Inhibition
5.15

# input compound: `Cc1cc(C)cc(N(Cc2cc(F)cc(F)c2)S(=O)(=O)c2cccn3c(C)nnc23)c1` ; wanted: its Inhibition
9.54

# input compound: `COc1ccc2[nH]cc(C(=O)CSc3nnc4c(=O)n(-c5ccc(C)c(C)c5)ccn34)c2c1` ; wanted: its Inhibition
17.24

# input compound: `O=C(Cn1nc2c(Sc3cccc(F)c3)nccn2c1=O)N1CCN(c2ccccc2)CC1` ; wanted: its Inhibition
1.07

# input compound: `COc1cc(NC(=O)Cn2nc3ccc(-c4ccc(C)c(C)c4)nn3c2=O)cc(OC)c1` ; wanted: its Inhibition
8.96

# input compound: `O=C(Cn1nc2ccc(SCc3ccc(Cl)cc3)nn2c1=O)Nc1cccc(F)c1` ; wanted: its Inhibition
-14.75

* * *

Assign Inhibition to each entry below.
# Test system: Escherichia coli
# conditionLabel: Concentration 32 ug.mL-1;; ASSAY_TEST Inhibition of Bacterial Growth; detection method Absorption (OD600); MEDIA CAMHB; plate type 384well; NBS; CORNING #3640; time 18 hr
Potency and affinity values are given separately.
# number only, unit % dropped from output

# input molecule: `COc1ccc(NC(=O)Cn2nc3c(N4CCOCC4)nccn3c2=O)cc1Cl` ; wanted: its Inhibition
-1.05

# input molecule: `COc1ccccc1NC(=O)Cn1nc2c(SCc3ccccc3)nccn2c1=O` ; wanted: its Inhibition
-12.47

# input molecule: `O=c1c2nnc(SCc3ccccc3)n2ccn1-c1ccc(Br)cc1` ; wanted: its Inhibition
-3.8

# input molecule: `COc1ccc(CCn2c(=O)c3sccc3n3c(=O)n(CC(=O)c4ccccc4)nc23)cc1OC` ; wanted: its Inhibition
3.29

# input molecule: `Cc1ccc(-c2cc3c4nn(CC(=O)Nc5ccccc5Br)c(=O)n4ccn3n2)cc1C` ; wanted: its Inhibition
-2.39

# input molecule: `Cc1nnc2ccc(S(=O)(=O)N(Cc3ccccc3)c3ccc(F)cc3)cn12` ; wanted: its Inhibition
-1.95

# input molecule: `COc1cc(NC(=O)Cn2nc3n(CCc4ccccc4)c(=O)c4ccccc4n3c2=O)cc(OC)c1` ; wanted: its Inhibition
-2.27

# input molecule: `O=C(Cn1nc2ccc(SCc3ccc(Cl)cc3)nn2c1=O)NCc1ccccc1` ; wanted: its Inhibition
-9.37

# input molecule: CCC(C)NC(=O)CSc1nnc2c(=O)n(Cc3ccc(F)cc3)ccn12 (stereo not given) ; wanted: its Inhibition
-9

# input molecule: `CC(C)Sc1ccc2nn(CC(=O)Nc3ccc(Br)cc3F)c(=O)n2n1` ; wanted: its Inhibition
3.45

Values were extracted from ChEMBL document CHEMBL4513146.
